The reader will find reported kcat NADPH values listed item by item below.
Assay: KARI assay of purified S. exigua KARI and variants with NADPH (Examples 6-9)
Format: biochemical
Experimental: S. exigua KARI activity or activities of its variants were assayed kinetically by monitoring the decrease in NADPH or NADH concentration by measuring the change in absorbance at 340 nm. […] Michaelis-Menten constants of the cofactors were determined with varying concentrations of NADPH (200-12 μM final) or NADH (200-6 μM final).
measure: kcat NADPH (s⁻¹)

>>> experimental_value("Se1_KARI^GE11-his6: S. exigua KARI variant G60V (protein, UniProt D0WGK0 1-342, looked up, variant G60V, His6 tag, S. exigua KARI variant G60V) Ketol-acid reductoisomerase …: MSVKTKEKEMAVTILYEQDVDPKVIQGLKVGIIGYGSQGHAHALNLMDSGVDVRVGLREVSSSWKTAEEAGLKVTDMDTAAEEADVIMVLVPDEIQPKVYQEHIAAHLKAGNTLAFAHGFNIHYGYIVPPEDVNVIMCAPKGPGHIVRRQFTEGSGVPDLACVQQDATGNAWDIVLSYCWGVGGARSGIIKATFAEETEEDLFGEQAVLCGGLVELVKAGFETLTEAGYPPELAYFECYHEMKMIVDLMYESGIHFMNYSISNTAEYGEYYAGPKVINEQSREAMKEILKRIQDGSFAQEFVDDCNNGHKRLLEQREAINTHPIETTGAQIRSMFSWIKKED")
2
>>> experimental_value("Se1_KARI^4E10: S. exigua KARI variant L57V, R58P, S61C (protein, UniProt D0WGK0 1-342, looked up, variant L57V R58P S61C) Ketol-acid reductoisomerase …: MSVKTKEKEMAVTILYEQDVDPKVIQGLKVGIIGYGSQGHAHALNLMDSGVDVRVGVPEGCSSWKTAEEAGLKVTDMDTAAEEADVIMVLVPDEIQPKVYQEHIAAHLKAGNTLAFAHGFNIHYGYIVPPEDVNVIMCAPKGPGHIVRRQFTEGSGVPDLACVQQDATGNAWDIVLSYCWGVGGARSGIIKATFAEETEEDLFGEQAVLCGGLVELVKAGFETLTEAGYPPELAYFECYHEMKMIVDLMYESGIHFMNYSISNTAEYGEYYAGPKVINEQSREAMKEILKRIQDGSFAQEFVDDCNNGHKRLLEQREAINTHPIETTGAQIRSMFSWIKKED")
0.90
>>> experimental_value("Se1_KARI^14B7: S. exigua KARI variant Y35H, S63D, I95V (protein, UniProt D0WGK0 1-342, looked up, variant Y35H S63D I95V) Ketol-acid reductoisomerase …: MSVKTKEKEMAVTILYEQDVDPKVIQGLKVGIIGHGSQGHAHALNLMDSGVDVRVGLREGSSDWKTAEEAGLKVTDMDTAAEEADVIMVLVPDEVQPKVYQEHIAAHLKAGNTLAFAHGFNIHYGYIVPPEDVNVIMCAPKGPGHIVRRQFTEGSGVPDLACVQQDATGNAWDIVLSYCWGVGGARSGIIKATFAEETEEDLFGEQAVLCGGLVELVKAGFETLTEAGYPPELAYFECYHEMKMIVDLMYESGIHFMNYSISNTAEYGEYYAGPKVINEQSREAMKEILKRIQDGSFAQEFVDDCNNGHKRLLEQREAINTHPIETTGAQIRSMFSWIKKED")
1.4

Source of measurements: patent US20140295512A1
